# Tested on: Plasmodium falciparum
# assay_protocol: Antiplasmodial activity against Plasmodium falciparum FcB1/columbia infected in human erythrocytes
# Assay type: functional, organism-based
assay_readout: IC50 (µM)

smiles_record | recorded_number
CCc1ccc(/C=C2\Oc3cc(O)ccc3C2=O)cc1 | 28
COc1cc2c(c(OC)c1)C(=O)/C(=C/c1c(C)cccc1C)N2 | 9.1
COc1cc2c(c(OC)c1)C(=O)/C(=C/c1ccc(Cl)cc1)N2 | 17
CCc1ccc(/C=C2\Nc3cc(OC)cc(OC)c3C2=O)cc1 | 1
COc1cc2c(c(OC)c1)C(=O)/C(=C/c1c(C)c(C)cc(C)c1C)N2 | 8.9
COc1cc2c(c(OC)c1)C(=O)/C(=C/c1ccc(C)cc1C)N2 | 3.6
COc1cc2c(c(OC)c1)C(=O)/C(=C/c1ccc(C(C)(C)C)cc1)N2 | 7.2
CCCCc1ccc(/C=C2\Nc3cc(OC)cc(OC)c3C2=O)cc1 | 4.1
O=C1/C(=C/c2ccc(O)cc2)Oc2cc(O)ccc21 | 130
CCc1ccccc1/C=C1\Nc2cc(OC)cc(OC)c2C1=O | 12.8
CCCCc1ccc(/C=C2\Oc3cc(OC)cc(OC)c3C2=O)cc1 | 11.8
COc1cc2c(c(OC)c1)C(=O)/C(=C/c1ccc(Br)cc1)N2 | 49.8
COc1cc2c(c(OC)c1)C(=O)/C(=C/c1cc(OC)c(OC)c(OC)c1)N2 | 1.9
